The entries that follow carry pKi values tested on Oxytocin receptor (Homo sapiens), drawn from several published reports.
pKi is defined as minus the log10 of a concentration measured in mol/L.

INSERT INTO assay_data (molecule, measured_target, val) VALUES
  ('COc1ccccc1CNC(=O)CCc1nnc(SCc2cccc(C)c2)n1Cc1ccc(C)cc1', 'Oxytocin receptor (Homo sapiens)', 6.61),
  ('Cc1ccc(CN(C(=O)c2c(C)cc(C)nc2N)C(C(N)=O)c2ccc3c(c2)OCCO3)cc1 (stereo not drawn)', 'Oxytocin receptor (Homo sapiens)', 8.03);

Now let's try a different one.
The molecule Cn1ncc2c1Nc1ccccc1N(C(=O)c1ccc3c(c1)OCO3)C2 showed pKi equal to 6.80
